Every entry's value here was drawn from patent US20230234962A1.

pIC50: −log10 of the molar value.
Test system UniProt P48736, pIC50 listed for each of the compounds.
Sequence (P48736 whole entry): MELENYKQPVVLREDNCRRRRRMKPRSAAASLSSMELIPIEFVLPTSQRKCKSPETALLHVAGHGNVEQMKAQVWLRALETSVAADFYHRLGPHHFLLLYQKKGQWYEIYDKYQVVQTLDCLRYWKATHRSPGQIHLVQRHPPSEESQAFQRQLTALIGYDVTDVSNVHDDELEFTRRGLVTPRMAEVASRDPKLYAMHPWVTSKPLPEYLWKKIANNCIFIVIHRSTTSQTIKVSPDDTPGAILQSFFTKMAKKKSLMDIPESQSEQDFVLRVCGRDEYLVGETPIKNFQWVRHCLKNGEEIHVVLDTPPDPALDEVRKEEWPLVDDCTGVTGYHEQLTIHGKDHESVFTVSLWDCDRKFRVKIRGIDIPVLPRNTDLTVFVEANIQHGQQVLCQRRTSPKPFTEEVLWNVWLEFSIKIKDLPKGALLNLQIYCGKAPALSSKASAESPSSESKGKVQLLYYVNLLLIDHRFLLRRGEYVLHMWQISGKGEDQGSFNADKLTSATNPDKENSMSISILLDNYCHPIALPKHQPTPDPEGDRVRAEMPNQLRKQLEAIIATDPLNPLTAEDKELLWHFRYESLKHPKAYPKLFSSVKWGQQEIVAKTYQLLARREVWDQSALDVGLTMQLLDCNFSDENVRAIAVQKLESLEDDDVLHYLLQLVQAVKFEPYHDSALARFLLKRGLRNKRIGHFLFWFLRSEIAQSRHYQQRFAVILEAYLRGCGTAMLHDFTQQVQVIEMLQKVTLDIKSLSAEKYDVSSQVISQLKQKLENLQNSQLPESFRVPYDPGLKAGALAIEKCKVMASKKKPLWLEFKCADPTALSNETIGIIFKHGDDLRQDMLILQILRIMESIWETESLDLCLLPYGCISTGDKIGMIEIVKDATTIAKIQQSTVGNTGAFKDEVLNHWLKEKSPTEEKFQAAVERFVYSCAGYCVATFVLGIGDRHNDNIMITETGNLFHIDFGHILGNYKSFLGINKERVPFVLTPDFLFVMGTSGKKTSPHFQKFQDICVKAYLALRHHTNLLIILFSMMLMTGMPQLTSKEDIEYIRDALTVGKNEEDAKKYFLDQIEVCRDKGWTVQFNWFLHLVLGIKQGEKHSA

The examples below pair each entry with its known result.
[[record]]
compound_string = "Cc1ccc2c(c1)S(=O)(=O)Cc1c(C(=O)N3CCOC4(CC4)C3)nn(-c3ccc(CN4CCOCC4)cc3)c1-2"
assay_readout = "pIC50"
result = "< 5.00"

[[record]]
compound_string = "Cc1cccc2c1S(=O)(=O)Cc1c(C(=O)N3CCOC4(CC4)C3)nn(-c3ccc(CN4CCOCC4)cc3)c1-2"
assay_readout = "pIC50"
result = "< 5.00"

[[record]]
compound_string = "COc1cccc2c1S(=O)(=O)Cc1c(C(=O)N3CCOC4(CC4)C3)nn(-c3ccc(CN4CCOCC4)cc3)c1-2"
assay_readout = "pIC50"
result = "< 5.00"

[[record]]
compound_string = "O=C(c1nn(-c2ccc(CN3CCOCC3)cc2)c2c1CS(=O)(=O)c1cc(Cl)ccc1-2)N1CCOC2(CC2)C1"
assay_readout = "pIC50"
result = "< 5.00"

[[record]]
compound_string = "O=C(c1nn(-c2ccc(CN3CCOCC3)cc2)c2c1CS(=O)(=O)c1c-2ccc(Cl)c1F)N1CCOC2(CC2)C1"
assay_readout = "pIC50"
result = 5.05


Here is the next item to consider.
IN: Provide the reported pIC50 (system: UniProt P48736) for O=C(c1nn(-c2ccc(CN3CCOCC3)cc2)c2c1CS(=O)(=O)c1c(F)cccc1-2)N1CCOC2(CC2)C1
OUT: 5.21
